- testTarget: human recombinant HDAC6 (Homo sapiens)
- Construct: purchased Calbiochem 382180
- Sequence (Q9UBN7 whole entry): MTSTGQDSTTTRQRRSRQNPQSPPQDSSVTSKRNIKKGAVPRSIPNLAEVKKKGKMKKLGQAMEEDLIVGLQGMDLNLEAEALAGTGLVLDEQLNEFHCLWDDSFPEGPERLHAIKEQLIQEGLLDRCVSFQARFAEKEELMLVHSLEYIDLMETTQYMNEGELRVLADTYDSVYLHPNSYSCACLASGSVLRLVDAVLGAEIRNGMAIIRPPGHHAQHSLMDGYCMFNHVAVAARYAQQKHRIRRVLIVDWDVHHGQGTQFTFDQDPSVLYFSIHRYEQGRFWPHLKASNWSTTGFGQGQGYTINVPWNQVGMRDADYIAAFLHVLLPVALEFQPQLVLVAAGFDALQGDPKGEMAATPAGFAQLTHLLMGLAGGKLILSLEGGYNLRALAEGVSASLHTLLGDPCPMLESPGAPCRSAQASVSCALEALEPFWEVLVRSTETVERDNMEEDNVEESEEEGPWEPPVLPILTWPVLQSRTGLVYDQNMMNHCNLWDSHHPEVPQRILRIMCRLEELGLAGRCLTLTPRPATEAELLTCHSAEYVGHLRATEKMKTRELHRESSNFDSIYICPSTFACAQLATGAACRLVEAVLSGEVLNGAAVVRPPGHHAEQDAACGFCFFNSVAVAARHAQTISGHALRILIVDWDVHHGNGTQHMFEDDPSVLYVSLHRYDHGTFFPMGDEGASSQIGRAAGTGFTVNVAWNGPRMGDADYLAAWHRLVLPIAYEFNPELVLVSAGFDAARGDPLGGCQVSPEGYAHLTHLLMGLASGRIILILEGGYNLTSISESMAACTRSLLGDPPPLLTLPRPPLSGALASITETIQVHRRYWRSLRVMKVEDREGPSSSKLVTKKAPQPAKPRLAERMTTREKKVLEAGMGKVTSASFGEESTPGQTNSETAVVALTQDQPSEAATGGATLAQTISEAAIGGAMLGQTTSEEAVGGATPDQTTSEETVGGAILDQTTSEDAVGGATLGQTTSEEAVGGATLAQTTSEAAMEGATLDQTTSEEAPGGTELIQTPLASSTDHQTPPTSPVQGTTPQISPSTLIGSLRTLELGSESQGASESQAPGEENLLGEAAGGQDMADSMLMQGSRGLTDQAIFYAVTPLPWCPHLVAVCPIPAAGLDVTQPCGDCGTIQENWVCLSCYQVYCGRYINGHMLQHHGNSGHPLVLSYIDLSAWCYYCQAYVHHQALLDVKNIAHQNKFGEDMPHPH
- assayInfo: HDAC6 enzyme activity inhibition assay (in vitro, fluorimetric)
- Format: biochemical
- conditionNotes: HDAC6 selectivity over HDAC1
- Protocol: In order to examine the HDAC6 selectivity of the compounds of formula 1 of the present invention by HDAC1 and HDAC6 enzymatic activity inhibition assays, an experiment was performed using a conventional substance as a control. HDAC enzyme activity was measured using a HDAC Fluorimetric Drug Discovery Kit (BML-AK511, 516, Enzo Life Science). […] Based on the resulting values, each IC50 value was calculated using GraphPad Prism4.0 program.
Below is a list of entries, each paired with its recorded HDAC6 selectivity (fold) value.
Provide only the numeric value, understood in fold.

>  <smilesText>
C[C@@H]1CN(Cc2ccc(C(=O)NO)cc2)C[C@H](C)N1C(=O)c1cccc(-c2ccncc2)c1

>  <HDAC6 selectivity (fold)>
31

$$$$
>  <smilesText>
C[C@@H]1CN(Cc2ccc(C(=O)NO)cc2)C[C@H](C)N1Cc1ccccc1-c1cccnc1

>  <HDAC6 selectivity (fold)>
749

$$$$
>  <smilesText>
CCN1CC=C(c2ccccc2CN2[C@H](C)CN(Cc3ccc(C(=O)NO)cc3)C[C@@H]2C)CC1

>  <HDAC6 selectivity (fold)>
101

$$$$

(Q) State HDAC6 selectivity (fold) on human recombinant HDAC6 (Homo sapiens). Entry: `C[C@@H]1CN(Cc2ccccc2Cl)C[C@H](C)N1Cc1ccc(C(=O)NO)cc1`
(A) 48

(Q) State HDAC6 selectivity (fold) on human recombinant HDAC6 (Homo sapiens). Entry: `C[C@@H]1CN(Cc2ccc(C(=O)NO)cc2)C[C@H](C)N1Cc1ccc(CN2CCCC2)cc1`
(A) 35

Reference for the values: patent US10287255B2
